SYSTEM NAME: Enoyl-[acyl-carrier-protein] reductase [NADH] (Mycobacterium tuberculosis, UniProt P9WGR1)
Sequence (P9WGR1 whole entry): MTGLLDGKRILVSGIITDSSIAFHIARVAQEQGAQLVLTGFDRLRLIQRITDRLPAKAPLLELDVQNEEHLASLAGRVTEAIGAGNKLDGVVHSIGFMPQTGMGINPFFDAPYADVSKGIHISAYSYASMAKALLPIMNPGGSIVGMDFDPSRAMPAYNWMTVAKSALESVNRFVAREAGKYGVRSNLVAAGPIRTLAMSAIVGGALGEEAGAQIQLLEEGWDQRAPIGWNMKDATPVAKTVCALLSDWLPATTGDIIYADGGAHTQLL
Classes are defined on IC50 with ranges LOW (below 3 µM), MID (3 µM to below 10 µM), HIGH (10 µM or more)

As a guide, the following entries are already answered.
Each compound maps to one class by IC50. Which class for O=C(c1ccccc1)N1CCN(C(c2ccc(F)cc2)c2ccc(F)cc2)CC1 ?
LOW

Each compound maps to one class by IC50. Which class for O=C(c1cccc(Cl)c1)N1CCN(c2cccc(Cl)c2)CC1 ?
MID

Each compound maps to one class by IC50. Which class for O=C(c1ccccc1F)N1CCN(c2cccc(Cl)c2)CC1 ?
HIGH

Each compound maps to one class by IC50. Which class for Cc1ccc(C(=O)N2CCN(C3c4ccccc4-c4ccccc43)CC2)cc1 ?
LOW

Each compound maps to one class by IC50. Which class for CC(C)(C)c1ccc(C(=O)N2CCN(c3cccc(C(F)(F)F)c3)CC2)cc1 ?
HIGH

Each compound maps to one class by IC50. Which class for Cc1ccc(C(=O)N2CCN(c3cccc(C(F)(F)F)c3)CC2)cc1 ?
MID

Continuing:
Each compound maps to one class by IC50. Which class for O=C(c1ccccc1)N1CCN(C2c3ccccc3-c3ccccc32)CC1 ?
LOW

Each compound maps to one class by IC50. Which class for Cc1cccc(C(=O)N2CCN(c3ccc([N+](=O)[O-])cc3)CC2)c1 ?
HIGH

Each compound maps to one class by IC50. Which class for O=C(c1ccccc1F)N1CCC(Cc2ccccc2)CC1 ?
HIGH

* * *

SYSTEM NAME: Enoyl-[acyl-carrier-protein] reductase [NADH] (Mycobacterium tuberculosis, UniProt P9WGR1)
Sequence (P9WGR1 whole entry): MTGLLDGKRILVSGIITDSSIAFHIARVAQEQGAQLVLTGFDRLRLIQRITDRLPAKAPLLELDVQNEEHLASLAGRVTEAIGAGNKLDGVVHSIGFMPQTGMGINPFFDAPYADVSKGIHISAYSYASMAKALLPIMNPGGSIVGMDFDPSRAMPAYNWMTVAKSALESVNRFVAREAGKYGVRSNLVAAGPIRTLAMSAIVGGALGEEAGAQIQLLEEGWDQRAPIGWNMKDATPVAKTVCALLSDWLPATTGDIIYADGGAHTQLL
Overview of recorded log10(IC50) for various molecules
Reminder: these figures are log10 of reported IC50, in µM before transformation.

Worked cases, answers included:
Any idea what log10(IC50) was measured for Cc1ccc(C(=O)N2CCN(c3cccc(Cl)c3)CC2)cc1 ?
0.49

Any idea what log10(IC50) was measured for Cc1ccc(C(=O)N2CCN(c3cccc(Cl)c3)CC2)cc1C ?
0.00

Any idea what log10(IC50) was measured for O=C(c1ccc(F)cc1)N1CCN(c2cccc(Cl)c2)CC1 ?
0.99

Any idea what log10(IC50) was measured for O=C(c1ccc2[nH]ccc2c1)N1CCN(C(c2ccc(F)cc2)c2ccc(F)cc2)CC1 ?
0.02

Any idea what log10(IC50) was measured for O=C(c1cccc(Cl)c1)N1CCC(Cc2ccccc2)CC1 ?
0.89

Continuing:
Any idea what log10(IC50) was measured for Cc1ccc(C(=O)N2CCN(c3ccccc3)CC2)cc1 ?
1.22

Any idea what log10(IC50) was measured for Cc1ccc(C(=O)N2CCC(Cc3ccccc3)CC2)cc1 ?
0.71

Any idea what log10(IC50) was measured for Cc1ccc(C(=O)N2CCN(C(c3ccc(F)cc3)c3ccc(F)cc3)CC2)cc1 ?
0.28

Any idea what log10(IC50) was measured for O=C(c1ccccc1)N1CCN(Cc2ccccc2)CC1 ?
1.50

Any idea what log10(IC50) was measured for Cc1ccc(C(=O)N2CCN(c3cccc(C(F)(F)F)c3)CC2)cc1C ?
0.27

Any idea what log10(IC50) was measured for O=C(c1ccc(Cl)c(Cl)c1)N1CCN(c2ccccc2)CC1 ?
1.25

* * *

SYSTEM NAME: Enoyl-[acyl-carrier-protein] reductase [NADH] (Mycobacterium tuberculosis, UniProt P9WGR1)
Sequence (P9WGR1 whole entry): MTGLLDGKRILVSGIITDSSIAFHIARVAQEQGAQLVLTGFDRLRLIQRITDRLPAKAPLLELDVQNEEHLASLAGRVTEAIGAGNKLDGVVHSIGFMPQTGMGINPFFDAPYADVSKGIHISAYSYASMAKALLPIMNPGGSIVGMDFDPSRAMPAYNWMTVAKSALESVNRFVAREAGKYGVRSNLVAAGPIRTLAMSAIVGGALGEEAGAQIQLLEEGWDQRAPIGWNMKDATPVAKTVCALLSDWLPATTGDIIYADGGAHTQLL
QUANTITY: IC50 (µM)
Enter your answer as a number in µM; do not include the unit.

Lab note: need IC50 for Cc1cccc(C(=O)N2CCC(Cc3ccccc3)CC2)c1 on Enoyl-[acyl-carrier-protein] reductase [NADH] (Mycobacterium tuberculosis, UniProt P9WGR1), anyone have it?
7.39

Lab note: need IC50 for O=C(c1ccc(Cl)c(Cl)c1)N1CCN(c2cccc(Cl)c2)CC1 on Enoyl-[acyl-carrier-protein] reductase [NADH] (Mycobacterium tuberculosis, UniProt P9WGR1), anyone have it?
6.05

Continuing:
Lab note: need IC50 for Cc1cccc(C(=O)N2CCN(c3cccc(Cl)c3)CC2)c1 on Enoyl-[acyl-carrier-protein] reductase [NADH] (Mycobacterium tuberculosis, UniProt P9WGR1), anyone have it?
9.43

Lab note: need IC50 for O=C(c1ccccc1)N1CCN(c2ccccc2)CC1 on Enoyl-[acyl-carrier-protein] reductase [NADH] (Mycobacterium tuberculosis, UniProt P9WGR1), anyone have it?
38.9

* * *

SYSTEM NAME: UniProt P9WGR1
Sequence (P9WGR1 whole entry): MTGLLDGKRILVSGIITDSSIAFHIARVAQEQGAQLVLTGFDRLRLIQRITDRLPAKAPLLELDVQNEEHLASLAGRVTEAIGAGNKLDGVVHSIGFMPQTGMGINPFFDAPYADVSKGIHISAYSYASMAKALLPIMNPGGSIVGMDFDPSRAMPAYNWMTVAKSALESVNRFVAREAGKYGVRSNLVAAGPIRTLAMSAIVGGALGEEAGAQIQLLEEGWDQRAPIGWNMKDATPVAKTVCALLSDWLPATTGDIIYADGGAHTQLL
Overview of recorded IC50 for various compounds

Any idea what IC50 was measured for Cc1ccc(N2CCN(C(=O)c3ccc(C(C)(C)C)cc3)CC2)cc1Cl ?
> 100 µM

Any idea what IC50 was measured for CC(C)(C)c1ccc(C(=O)N2CCN(c3cccc(Cl)c3)CC2)cc1 ?
> 100 µM

Continuing:
Any idea what IC50 was measured for CC(C)c1ccc(C(=O)N2CCN(c3cccc(Cl)c3)CC2)cc1 ?
> 100 µM
